- system.under.test: Phosphatidylinositol 4,5-bisphosphate 3-kinase catalytic subunit delta isoform (Homo sapiens, UniProt O00329)
- Sequence (O00329 whole entry): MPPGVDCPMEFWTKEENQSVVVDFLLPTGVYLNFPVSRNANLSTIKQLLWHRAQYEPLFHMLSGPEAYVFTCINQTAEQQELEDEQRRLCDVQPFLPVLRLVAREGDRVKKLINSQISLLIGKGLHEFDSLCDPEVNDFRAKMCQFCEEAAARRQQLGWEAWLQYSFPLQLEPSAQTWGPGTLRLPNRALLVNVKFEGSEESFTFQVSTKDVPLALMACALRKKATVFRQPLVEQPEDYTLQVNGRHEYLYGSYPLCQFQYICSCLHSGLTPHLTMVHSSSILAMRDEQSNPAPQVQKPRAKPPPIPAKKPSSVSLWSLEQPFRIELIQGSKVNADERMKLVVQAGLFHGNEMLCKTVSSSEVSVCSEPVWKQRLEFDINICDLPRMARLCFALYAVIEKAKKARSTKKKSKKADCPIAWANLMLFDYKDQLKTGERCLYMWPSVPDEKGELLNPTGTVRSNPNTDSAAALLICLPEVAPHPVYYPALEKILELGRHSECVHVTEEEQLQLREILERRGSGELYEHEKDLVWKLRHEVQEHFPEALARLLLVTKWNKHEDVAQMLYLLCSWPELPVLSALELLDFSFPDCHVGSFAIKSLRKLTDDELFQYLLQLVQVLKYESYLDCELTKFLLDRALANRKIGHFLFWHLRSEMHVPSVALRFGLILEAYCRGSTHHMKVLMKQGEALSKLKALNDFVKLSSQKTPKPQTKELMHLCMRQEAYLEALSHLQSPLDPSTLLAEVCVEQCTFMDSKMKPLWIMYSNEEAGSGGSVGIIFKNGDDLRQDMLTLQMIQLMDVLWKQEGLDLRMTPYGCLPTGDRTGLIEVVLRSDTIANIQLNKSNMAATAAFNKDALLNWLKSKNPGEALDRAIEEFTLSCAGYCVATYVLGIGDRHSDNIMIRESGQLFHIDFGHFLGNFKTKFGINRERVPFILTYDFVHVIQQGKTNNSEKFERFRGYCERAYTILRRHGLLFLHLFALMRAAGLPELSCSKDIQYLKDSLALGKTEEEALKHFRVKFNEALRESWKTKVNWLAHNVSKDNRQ
Hi! Just check whether IC50 is below 80 nM. Below gives condition met, equal or above gives condition not met.

molecule | cat
COCC(=O)N(C)C1CCN(Cc2cc3nc(-c4cccc5[nH]ncc45)nc(N4CCOCC4)c3s2)CC1 | condition met
CC(=O)NC1CCN(Cc2cc3nc(-c4cccc5[nH]ccc45)nc(N4CCOCC4)c3s2)C1 (racemic) | condition met
COCC(=O)NC1CCN(Cc2cc3nc(-c4cccc5[nH]ncc45)nc(N4CCOCC4)c3s2)C1 (racemic) | condition not met

# input Is it true that IC50 reported for CC(=O)N(C)C1CCN(Cc2cc3nc(-c4cccc5[nH]ccc45)nc(N4CCOCC4)c3s2)CC1 is less than 80 nM?
# output condition met

# input Please state whether IC50 is below 80 nM for CS(=O)(=O)NC1CCN(Cc2cc3nc(-c4cccc5[nH]ncc45)nc(N4CCOCC4)c3s2)CC1
# output condition met

# input Determine whether this molecule shows IC50 lower than 80 nM (ties excluded): CN(C1CCN(Cc2cc3nc(-c4cccc5[nH]ncc45)nc(N4CCOCC4)c3s2)C1)S(C)(=O)=O (racemic)
# output condition met

# input Is the reported IC50 for CN(C1CCN(Cc2cc3nc(-c4cnc(N)nc4)nc(N4CCOCC4)c3s2)C1)S(C)(=O)=O (racemic) strictly below 80 nM?
# output condition met

# input Please indicate whether the reported IC50 of COCC(=O)N(C)C1CCN(Cc2cc3nc(-c4cnc(N)nc4)nc(N4CCOCC4)c3s2)CC1 is strictly below 80 nM.
# output condition met

# input Quick check: does CS(=O)(=O)NC1CCN(Cc2cc3nc(-c4cccc5[nH]ncc45)nc(N4CCOCC4)c3s2)C1 (racemic) have IC50 under 80 nM?
# output condition met

# input Lab note: IC50 threshold 80 nM. Does this molecule come in strictly under it? COCC(=O)N(C)C1CCCN(Cc2cc3nc(-c4cnc(N)nc4)nc(N4CCOCC4)c3s2)C1 (racemic)
# output condition met

# input Below 80 nM on IC50? Entry CNC(=O)NC1CCCN(Cc2cc3nc(-c4cccc5[nH]ccc45)nc(N4CCOCC4)c3s2)C1 (racemic)
# output condition not met

# input Dear reviewer, please state whether CC(=O)NC1CCN(Cc2cc3nc(-c4cccc5[nH]ncc45)nc(N4CCOCC4)c3s2)C1 (racemic) has IC50 strictly beneath 80 nM.
# output condition not met

# input A record lists CS(=O)(=O)NC1CCN(Cc2cc3nc(-c4cccc5[nH]ccc45)nc(N4CCOCC4)c3s2)C1 (racemic) . Is its IC50 below 80 nM?
# output condition met
